- Test system: CCRIS mutagenicity, Ames/micronucleus/aberration tests
- experimental_protocol: CCRIS mutagenicity studies
- test_conditions: Test System: AMES SALMONELLA TYPHIMURIUM; Strain/Indicator: TA98; Metabolic Activation: RAT, LIVER, S-9, AROCLOR 1254; Method: STANDARD PLATE
Activity calls are given as the source filed them. The rule behind the calls is not given here. Where a SMILES comes first, the peptide text is derived from it.
# output must be one of Y = active, N = inactive

Sample answers from the record:
# compound, category
rows = [
    ("CN(C)c1ccc([C@H]2C[C@@]3(C)[C@@H](CC[C@@]3(O)/C=C\\CO)[C@@H]3CCC4=CC(=O)CCC4=C32)cc1", "N"),
    ("C[C@]12CC[C@@H]3c4ccc(O)cc4CC[C@H]3[C@@H]1CC[C@@H]2O", "N"),
    ("OC(O)C(Cl)(Cl)Cl", "N"),
    ("C=C(C)C(=O)OCC(C)(C)C", "N"),
    ("NCCCC[C@H](NC(=O)[C@H](Cc1c[nH]c2ccccc12)NC(=O)[C@@H](N)CCCCN)C(=O)O (H-Lys-Trp-Lys-OH)", "N"),
    ("O=S(=O)(NO)c1cccc2cccnc12", "N"),
    ("Nc1cc(C(F)(F)F)ccc1Cl", "N"),
    ("NC(Cc1ccc(O)cc1)C(=O)O (configuration not stated)", "N"),
    ("C=C(Cl)Cl", "Y"),
    ("Cc1cc2ccccc2c2ccc3ccccc3c12", "Y"),
]

Task item: Recorded test call requested for NNC(=O)CNc1ccc2ccccc2c1
Reply: N

Task item: Recorded test call requested for O[C@@H]1C=CC=C[C@H]1O
Reply: N

----------
- System: CCRIS mutagenicity, Ames/micronucleus/aberration tests
- experimental_protocol: CCRIS mutagenicity studies
- test_conditions: Test System: AMES SALMONELLA TYPHIMURIUM; Strain/Indicator: TA100; Metabolic Activation: NONE; Method: PREINCUBATION
- Excerpt: The CCRIS database contains chemical records with carcinogenicity, mutagenicity, tumor promotion, and tumor inhibition test results. It was developed by the National Cancer Institute (NCI). Data are derived from studies cited in primary journals, current awareness tools, NCI reports, and other sources. Test results have been reviewed by experts in carcinogenesis and mutagenesis. CCRIS provides historical information from the years 1985 - 2011. It is no longer updated. […]
Activity calls are given as the source filed them. The rule behind the calls is not given here.
# output must be one of active, inactive

Sample answers from the record:
# compound, category
data = [
    ("CCCCCCCC(=O)O", "inactive"),
    ("CCN(Cc1cccc(S(=O)(=O)[O-])c1)c1ccc(C(=C2C=CC(=[N+](C)C)C=C2)c2ccc(N(CC)Cc3cccc(S(=O)(=O)O)c3)cc2)cc1", "inactive"),
    ("NC1=CC(=O)C(=O)c2ccccc21", "active"),
]

Task item: Recorded test call requested for CCN(CC)CC
Reply: inactive

Task item: Recorded test call requested for CCOC(=O)C1OC1c1ccccc1 (stereo unspecified)
Reply: inactive

Task item: Recorded test call requested for O=C1c2ccccc2C(=O)c2c1cc(O)c(CO)c2O
Reply: active

----------
- System: CCRIS mutagenicity, Ames/micronucleus/aberration tests
- experimental_protocol: CCRIS mutagenicity studies
- test_conditions: Test System: AMES SALMONELLA TYPHIMURIUM; Strain/Indicator: TA100; Metabolic Activation: HAMSTER, LIVER, S-9, AROCLOR 1254 (30%); Method: PREINCUBATION
Calls of active or inactive are those of the source. The rule behind the calls is not given here.
# output must be one of YES = active, NO = inactive

Sample answers from the record:
# substance_smiles, category
records = [
    ("Nc1ccc(N)cc1", "NO"),
    ("S=c1[nH]c2ccccc2[nH]1", "NO"),
    ("C1COC1", "NO"),
    ("COc1ccc(OC)c(N=Nc2c(O)ccc3ccccc23)c1", "YES"),
    ("O=NO", "YES"),
    ("COC(=O)Nc1cccc(OC(=O)Nc2cccc(C)c2)c1", "NO"),
    ("O=[N+]([O-])c1c2ccccc2cc2ccccc12", "YES"),
]

Consider the record given below.
Task item: Recorded test call requested for O=[N+]([O-])c1c(O)c(Cl)cc(Cl)c1Cl
Reply: NO

----------
- System: CCRIS mutagenicity, Ames/micronucleus/aberration tests
- experimental_protocol: CCRIS mutagenicity studies
- test_conditions: Test System: AMES SALMONELLA TYPHIMURIUM; Strain/Indicator: TA98; Metabolic Activation: NONE; Method: PREINCUBATION
Calls of active or inactive are those of the source. No rule for the calls is given here.
# output must be one of active, inactive

# compound, category
data = [
    ("Cc1cc2nc3c(=O)[nH]c(=O)nc-3n(C[C@H](O)[C@H](O)[C@H](O)CO)c2cc1C", "inactive"),
]

Task item: Recorded test call requested for CC(=O)O[C@H]1[C@H](OC23C=C(C)C4(CC4)C(C)(O)C2C(=O)C(C)(C)C3)O[C@H](CO)[C@@H](OC(=O)/C=C\c2ccc(O)cc2)[C@@H]1O (some centres not stated)
Reply: active

Task item: Recorded test call requested for CCOP(=S)(OCC)SCSC(C)(C)C
Reply: inactive

Task item: Recorded test call requested for O=S(=O)(O)OCc1c2ccccc2c(CO)c2c1ccc1ccccc12
Reply: active

Task item: Recorded test call requested for COc1ccc(O)cc1
Reply: inactive

Task item: Recorded test call requested for O=P(Oc1ccccc1)(Oc1ccccc1)Oc1ccccc1
Reply: inactive

Task item: Recorded test call requested for CC(C)(OOC(C)(C)c1ccccc1)c1ccccc1
Reply: inactive

Task item: Recorded test call requested for Nc1c2c(nc3ccccc13)CCCC2
Reply: inactive

Task item: Recorded test call requested for O=c1ccc2ccccc2o1
Reply: inactive

Task item: Recorded test call requested for Oc1c(Cl)cc(Cl)c2cccnc12
Reply: inactive

Task item: Recorded test call requested for CC(C)CN
Reply: inactive

Task item: Recorded test call requested for OC(O)C(Cl)(Cl)Cl
Reply: inactive

----------
- Test system: CCRIS mutagenicity, Ames/micronucleus/aberration tests
- experimental_protocol: CCRIS mutagenicity studies
- test_conditions: Test System: AMES SALMONELLA TYPHIMURIUM; Strain/Indicator: TA98; Metabolic Activation: S-9; Method: STANDARD PLATE
- Description: The CCRIS database contains chemical records with carcinogenicity, mutagenicity, tumor promotion, and tumor inhibition test results. It was developed by the National Cancer Institute (NCI). Data are derived from studies cited in primary journals, current awareness tools, NCI reports, and other sources. Test results have been reviewed by experts in carcinogenesis and mutagenesis. CCRIS provides historical information from the years 1985 - 2011. It is no longer updated. […]
Active and inactive are the calls of the source. No rule for the calls is given here.
# output must be one of t = active, f = inactive

Sample answers from the record:
# molecule, category
records = [
    ("Cc1cccn2c(=O)c(-c3nnn[nH]3)cnc12", "f"),
    ("Cc1ccc(C(C)C)cc1O", "f"),
    ("COP(=S)(OC)SCC(=O)N(C)C=O", "f"),
]

Consider the record given below.
Task item: Recorded test call requested for CC(C)CCNc1snc2ccccc12
Reply: f

----------
- Test system: CCRIS mutagenicity, Ames/micronucleus/aberration tests
- experimental_protocol: CCRIS mutagenicity studies
- test_conditions: Test System: AMES SALMONELLA TYPHIMURIUM; Strain/Indicator: TA97A; Metabolic Activation: NONE; Method: PREINCUBATION
The source made the active and inactive calls. The rule behind the calls is not given here.
# output must be one of active, inactive

# compound, tested_on, category
data = [
    ("OC1c2cccc3c2C2(OC2C1O)c1ccc2ccccc2c1-3 (stereo unspecified)", "CCRIS mutagenicity, Ames/micronucleus/aberration tests", "active"),
    ("CC(=O)NSc1c2cc(O)ccc2nc2ccc(O)cc12", "CCRIS mutagenicity, Ames/micronucleus/aberration tests", "active"),
    ("CC(C)(CO)[C@@H](O)C(=O)NCCC(=O)O", "CCRIS mutagenicity, Ames/micronucleus/aberration tests", "inactive"),
    ("OC[C@@H](O)[C@@H](O)[C@H](O)[C@@H](O)CO", "CCRIS mutagenicity, Ames/micronucleus/aberration tests", "inactive"),
    ("NC(=O)c1cccnc1", "CCRIS mutagenicity, Ames/micronucleus/aberration tests", "inactive"),
]

Task item: Recorded test call requested for CC(=O)c1c(=O)cc(C)oc1=O
Reply: inactive

Task item: Recorded test call requested for CC(C)(OOC(C)(C)c1ccccc1)c1ccccc1
Reply: inactive

Task item: Recorded test call requested for Cc1cc2nc3c(=O)[nH]c(=O)nc-3n(C[C@H](O)[C@H](O)[C@H](O)CO)c2cc1C
Reply: inactive

Task item: Recorded test call requested for Cc1c2cccc(C)c2nc2c1ccc1ccccc12
Reply: inactive

Task item: Recorded test call requested for O=c1ccc2c(cc3ccc4cccc5ccc2c3c45)c1=O
Reply: active

Task item: Recorded test call requested for Cc1ccc2nc3c(ccc4ccccc43)c(C)c2c1
Reply: inactive

The values you see were collected from PubChem BioAssay AID1259407.
